test system: HCT-116 colon; experiment: NCI tumour cell line growth inhibition, 48 h
Listed here: items and their measured TGI.

Would you mind telling me what TGI value was observed for CC(C)n1c2c(c3ccccc3c1=O)C(=O)c1ccccc1-2 ?
> 100 µM

What would you report for c1ccc2c(c1)N=c1ccccc1=P21c2ccccc2Nc2ccccc21 ?
1.76 µM

What would you report for CCCCC(=O)Nc1ccc2cc(C(=O)OC)c(=O)[nH]c2n1 ?
> 100 µM

What would you report for CCC(C)CNC1=C(NC(C)=O)C(=O)c2ccccc2C1=O (centres undefined) ?
> 100 µM

What would you report for CSCC[C@@H](NC(=O)[C@H](CC(C)C)NC(=O)C(Cc1cnc[nH]1)NC(=O)CNC(=O)[C@@H](NC(=O)[C@H](C)NC(=O)[C@H](Cc1cn(C=O)c2ccccc12)NC(=O)[C@H](CCC(N)=O)NC(=O)[C@@H](N)CC(N)=O)C(C)C)C(N)=O (some centres undefined) ?
> 100 µM

What would you report for O=c1[nH]/c(=C/c2cccs2)c(=O)[nH]/c1=C/c1ccc(OCc2ccccc2)cn1 ?
> 100 µM

What would you report for Cc1cc([C@H](C#N)c2nc3ccccc3s2)nc(Cl)n1 ?
15.3 µM

What would you report for COC(=O)/C=C1\C(=O)N(C(C)=O)c2ccccc21 ?
31.2 µM

What would you report for O=C1/C=C(/c2ccc(O)cc2)[C@H](O)Cc2ccc(OC3OC(CO)C(O)C(O)C3O)cc2O1 (some centres undefined) (tested in a mixture with another compound) ?
> 100 µM

====

system: SW-620 colon; assay: NCI tumour cell line growth inhibition, 48 h
Measurement Type: TGI

[
  {
    "Compound": "COc1c(Cl)ccc(Cl)c1-c1nnc(-c2c(Cl)c(Cl)c(Cl)c(Cl)c2-c2nc3ccc(C(=O)c4ccccc4)cc3[nH]2)o1",
    "Measurement Type": "TGI",
    "Recorded Measurement": "> 100 µM"
  },
  {
    "Compound": "N#CC1=C(N)NC(=S)NC1c1ccc(-c2ccc(-c3nc4ccccc4s3)cc2)o1 (stereo unspecified)",
    "Measurement Type": "TGI",
    "Recorded Measurement": "> 50 µM"
  }
]

Would you mind telling me what TGI value was observed for O=C1NC(N2CCOCC2)=N/C1=C\c1ccccc1 ?
> 100 µM

What would you report for Cc1cc(C)c2c(=O)n(CC(O)CN3CCN(c4ncccn4)CC3)sc2n1 (stereo unspecified) ?
60.7 µM

What would you report for CCCCCCCCOCC(O)COC (stereo unspecified) ?
> 100 µM

What would you report for Cc1cc(C)c2nc(Nc3nc(C)c(C)c(=O)[nH]3)nc(C)c2c1 ?
15.5 µM

What would you report for Cn1c(=O)c(C2c3ccccc3Oc3c2c(=O)n(C)c2ccccc32)c(O)c2ccccc21 (stereo unspecified) ?
> 100 µM

What would you report for O=c1[nH]nc(Nc2ccccc2)c2nnn(Cc3ccccc3)c12 ?
> 100 µM

What would you report for Cc1cccc2c1NC(c1c(C)[nH]c3ccccc13)C2 (stereo unspecified) ?
> 100 µM

What would you report for COc1ccc(NC(=O)c2cc(NC(=O)/C=C/c3ccccc3)c(OC)c(OC)c2)cc1 ?
> 100 µM

What would you report for COc1ccc(-c2cc(-c3ccco3)c(C#N)c(=O)n2C2OC(OC(=O)c3ccccc3)C(OC(=O)c3ccccc3)C2OC(=O)c2ccccc2)cc1 (stereo unspecified) ?
> 100 µM

What would you report for O=C1C=Cc2cc3ccccc3c3cccc1c23 ?
72.9 µM

What would you report for C/C(=N\NC(=S)N/N=C(\C)c1ccccn1)c1ccccn1 ?
> 100 µM

What would you report for CS(=O)(=O)c1nc(-c2cc3c(c(S(C)(=O)=O)n2)CCC3)cc2c1CCC2 ?
> 100 µM

What would you report for Oc1cccc(-c2cc(=S)ss2)c1 ?
44.3 µM

What would you report for N#CC1=C(N)Oc2c(sc3c(F)cccc23)C1c1ccc(Cl)cc1 (stereo unspecified) ?
16.3 µM

====

system: OVCAR-5 ovarian; assay: NCI tumour cell line growth inhibition, 48 h; in the data active = GI50 below about 0.43 µM; inactive = the rest
Field 'call' accepts active, inactive

Worked set:
[
  {
    "Molecule": "COc1cc(OC)cc(-c2n[nH]nc2-c2ccc3c(c2)OCO3)c1",
    "Assayed System": "OVCAR-5 ovarian",
    "Group": "inactive"
  },
  {
    "Molecule": "NS(=O)(=O)OC[C@H]1O[C@@H](n2cnc3c(N[C@H]4CCc5ccccc54)ncnc32)[C@H](O)[C@@H]1O",
    "Assayed System": "OVCAR-5 ovarian",
    "Group": "active"
  },
  {
    "Molecule": "C=CC[n+]1c(/C=C2\\Sc3ccccc3N2C)sc(-c2ccccc2)c1-c1ccccc1",
    "Assayed System": "OVCAR-5 ovarian",
    "Group": "active"
  },
  {
    "Molecule": "COc1cc(Oc2cnc3cc(N)cc(N)c3n2)cc(OC)c1OC",
    "Assayed System": "OVCAR-5 ovarian",
    "Group": "inactive"
  }
]

How did this test come out for CN1CCN(c2nc(NCCNc3ccnc4cc(Cl)ccc34)c3ccccc3n2)CC1 ?
inactive

====

tested on: SF-268 CNS; assay: NCI tumour cell line growth inhibition, 48 h
Where a SMILES comes first, the peptide text is derived from it. [ ]: non-standard residue; d: D form. The star is where a group is joined. ξ: configuration not given here. 4Abz = Nc1ccc(C(=O)O)cc1; ξL = CC(C)CC(N)C(=O)O; NHOH = ON*
Listed here: items and their measured TGI.

# annotated cases, reported TGI shown
[
  {
    "Molecule": "COC(=O)[C@@]12CC3CN(Cc4c1[nH]c1ccccc41)C2CC3=O",
    "Assayed System": "SF-268 CNS",
    "TGI": "> 100 µM"
  },
  {
    "Molecule": "O=C1/C=C(/c2ccc(O)cc2)[C@H](O)Cc2ccc(OC3OC(CO)C(O)C(O)C3O)cc2O1 (stereo partly drawn) (tested in a mixture with another compound)",
    "Assayed System": "SF-268 CNS",
    "TGI": "> 100 µM"
  },
  {
    "Molecule": "CC(C)CC(NC(=O)[C@@H]1CCCN1C(=O)CNC(=O)c1ccc(N)cc1)C(=O)N[C@H](C)C(=O)NO (stereo partly drawn) (H-[4Abz]GP[ξL][dA]-{NHOH})",
    "Assayed System": "SF-268 CNS",
    "TGI": "> 100 µM"
  },
  {
    "Molecule": "COc1ccc(C2CC(c3cccc(Nc4ccnc5cc(Cl)ccc45)c3)=NN2c2ccccc2)cc1 (stereo not drawn)",
    "Assayed System": "SF-268 CNS",
    "TGI": "> 100 µM"
  },
  {
    "Molecule": "COc1c2c(cc3oc(=O)ccc13)OC(C)(C)C=C2",
    "Assayed System": "SF-268 CNS",
    "TGI": "> 125 µM"
  },
  {
    "Molecule": "NC1=CN2c3ccccc3N(CC(=O)N3CCOCC3)C2C=C1 (stereo not drawn)",
    "Assayed System": "SF-268 CNS",
    "TGI": "> 100 µM"
  },
  {
    "Molecule": "O=C(O)c1cc(/C=C/c2ccc(O)c(O)c2)ccc1O",
    "Assayed System": "SF-268 CNS",
    "TGI": "> 100 µM"
  },
  {
    "Molecule": "COc1cc(C2C3=C(COC3=O)N(CCO)c3cc4c(cc32)OCCO4)cc(OC)c1O (stereo not drawn)",
    "Assayed System": "SF-268 CNS",
    "TGI": "> 50 µM"
  }
]

Would you mind telling me what TGI value was observed for Clc1ccc2nc3c(c(-c4ccccc4)nn3-c3ccccc3)c(-c3ccccc3)c2c1 ?
> 100 µM

What would you report for O=c1[nH]nc(Nc2ccccc2)c2nnn(Cc3ccccc3)c12 ?
> 100 µM

What would you report for Cc1cc(C)c2c(=O)n(CC(O)CN3CCN(c4ncccn4)CC3)sc2n1 (stereo not drawn) ?
32.6 µM

What would you report for COC(=O)C1=C(O)C(C(=O)OC)[C@@]2(O)[C@@H](C(=O)OC)C(c3ccccc3C(F)(F)F)C[C@@H]1[C@@H]2C(=O)OC (stereo partly drawn) ?
30.3 µM

What would you report for COC1=C(NC(C)=O)C(=O)c2nc3n(c2C1=O)CCC3 ?
33.2 µM

====

test system: A549 NSCLC; test: NCI tumour cell line growth inhibition, 48 h; in the data active = GI50 below about 0.43 µM; inactive = the rest
Field 'call' accepts true (1) (active), false (0) (inactive)

Worked set:
[
  {
    "Molecule": "O=C1C=Cc2cc3ccccc3c3cccc1c23",
    "Assayed System": "A549 NSCLC",
    "Group": "false (0)"
  },
  {
    "Molecule": "O=C(CCCCCn1c2ccccc2c2c3c(c4c5ccccc5[nH]c4c21)C(=O)N(O)C3=O)N1CCOCC1",
    "Assayed System": "A549 NSCLC",
    "Group": "false (0)"
  },
  {
    "Molecule": "Nc1nc(Cl)cc2c1ncn2C1OC(CO)C(O)C1O (stereo unspecified)",
    "Assayed System": "A549 NSCLC",
    "Group": "false (0)"
  },
  {
    "Molecule": "COc1cc(C2C3=C(COC3=O)N(CCO)c3cc4c(cc32)OCCO4)cc(OC)c1O (stereo unspecified)",
    "Assayed System": "A549 NSCLC",
    "Group": "false (0)"
  }
]

How did this test come out for CN1CCN(c2nc(NCCNc3ccnc4cc(Cl)ccc34)c3ccccc3n2)CC1 ?
false (0)

What would you report for N#CC1=C(N)Oc2c(sc3c(F)cccc23)C1c1ccc(Cl)cc1 (stereo unspecified) ?
false (0)

What would you report for O=C1c2cc(Br)ccc2-c2c1c1ccccc1c(=O)n2CCCCl ?
false (0)

What would you report for COC(=O)C1=C(O)C(C(=O)OC)[C@@]2(O)[C@@H](C(=O)OC)C(c3ccccc3C(F)(F)F)C[C@@H]1[C@@H]2C(=O)OC (stereo partly specified) ?
false (0)

What would you report for Cc1c(Br)cccc1NC(=O)c1sc2nc3c(cc2c1N)CN(Cc1ccccc1)CC3 ?
false (0)

What would you report for CC(=O)c1c[nH]c2ccc(-c3ccnc(Nc4ccc(NC(=O)c5cccc(F)c5)c(CN5CCOCC5)c4)n3)cc12 ?
true (1)

What would you report for COc1ccc(/C(C#N)=C/c2nc3c(N4CCOCC4)nc(Cl)nc3n2C)cc1OC ?
true (1)

What would you report for COC(=O)c1ccc2c(c1)CCN2C(=O)c1cc2c(cc1Br)OCO2 ?
false (0)

What would you report for COc1ccc(OC)c(-c2cc(-c3ccc(Cl)cc3)nn2-c2ccc(S(N)(=O)=O)cc2)c1 ?
false (0)

What would you report for COc1cc(Oc2cnc3cc(N)cc(N)c3n2)cc(OC)c1OC ?
false (0)

What would you report for COc1ccc(C2CC(c3cccc(Nc4ccnc5cc(Cl)ccc45)c3)=NN2c2ccccc2)cc1 (stereo unspecified) ?
false (0)

What would you report for N#CC1=C(N)NC(=S)NC1c1ccc(-c2ccc(-c3nc4ccccc4s3)cc2)o1 (stereo unspecified) ?
false (0)
